target: human URAT1 (Homo sapiens, UniProt Q96S37); construct: Full-length cDNA of human URAT1 (hURAT1); assay: Test for inhibition of uric acid transport using human URAT1-expressing cells;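 note: three stars up to 0.2 µM two stars 0.2-2 µM one star 2-20 µM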; format: cell-based; conditions: HEK 293 cells expressing human URAT1; 14C-labeled uric acid 25 μM; uptake 37° C. for 5 min
Sequence (Q96S37 whole entry): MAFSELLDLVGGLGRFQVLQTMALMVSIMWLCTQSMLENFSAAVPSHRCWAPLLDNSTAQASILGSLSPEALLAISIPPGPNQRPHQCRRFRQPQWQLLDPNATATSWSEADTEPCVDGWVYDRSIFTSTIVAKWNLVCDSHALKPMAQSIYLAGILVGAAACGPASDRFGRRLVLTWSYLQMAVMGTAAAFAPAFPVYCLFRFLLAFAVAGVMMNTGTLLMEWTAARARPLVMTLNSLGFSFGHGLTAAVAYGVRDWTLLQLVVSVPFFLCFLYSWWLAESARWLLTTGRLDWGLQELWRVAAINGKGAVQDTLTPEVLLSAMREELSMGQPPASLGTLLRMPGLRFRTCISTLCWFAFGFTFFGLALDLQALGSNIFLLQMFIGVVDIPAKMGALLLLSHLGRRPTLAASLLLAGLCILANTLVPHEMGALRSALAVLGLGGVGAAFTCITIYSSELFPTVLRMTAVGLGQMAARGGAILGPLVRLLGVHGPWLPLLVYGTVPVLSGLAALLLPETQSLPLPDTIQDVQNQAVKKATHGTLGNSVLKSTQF
metric_name: Inhibitory Activity (IC50 of uric acid transport inhibition)

> print(dat)
                           structure.string  result
1  CCS(=O)(=O)N1CCN(Cc2nc(-c3cncc(Cl)c3)n(Cc3cc(Cl)ccc3Cl)c2C(=O)O)CC1   * * *
2  Cc1nc(-c2cncc(O)c2)n(Cc2cc(Cl)ccc2Cl)c1C(=O)O     * *
3  Cc1ccc(Cn2c(C(=O)O)ccc2-c2cccnc2)c2ccccc12   * * *
4  Cc1ccc(Cn2c(-c3cccnc3)nc(C(C)C)c2C(=O)O)c2ccccc12   * * *
